# credit: paper PMC6380167

TARGET OR SYSTEM: enolase (Oryctolagus cuniculus)
Sequence (P25704 2-434): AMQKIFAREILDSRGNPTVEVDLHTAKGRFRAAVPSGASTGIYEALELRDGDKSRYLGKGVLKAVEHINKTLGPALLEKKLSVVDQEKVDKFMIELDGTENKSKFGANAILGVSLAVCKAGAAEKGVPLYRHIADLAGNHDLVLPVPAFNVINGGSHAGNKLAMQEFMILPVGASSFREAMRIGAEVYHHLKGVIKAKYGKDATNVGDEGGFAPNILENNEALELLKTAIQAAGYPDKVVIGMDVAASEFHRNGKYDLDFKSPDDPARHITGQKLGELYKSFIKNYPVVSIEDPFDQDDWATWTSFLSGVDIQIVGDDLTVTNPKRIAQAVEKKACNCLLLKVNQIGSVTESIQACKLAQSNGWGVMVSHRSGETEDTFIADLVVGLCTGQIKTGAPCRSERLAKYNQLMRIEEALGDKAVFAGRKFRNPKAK
OBSERVED PROPERTY: Ki

Exercise: State recorded Ki with enolase (Oryctolagus cuniculus), entry O=C(O)COP(=O)(O)O [phosphoglycolate] , no comment.
Solution: ~160 µM
